method-summary: Vancomycin concentration in dermal interstitial fluid (ISF) of human participants by wearable EAB sensor
Assay type: in vivo
protocol-conditions: dermal interstitial fluid (ISF), iv, 1 gram, participant 012 (hypo-perfusion phenotype), EAB sensor 812, single 1 gram IV infusion, read every 5 minutes, read-out: Cmax in ISF compartment
measurement-name: Cmax

**Q:** # input compound: CN[C@H](CC(C)C)C(=O)N[C@H]1C(=O)N[C@@H](CC(N)=O)C(=O)N[C@H]2C(=O)N[C@H]3C(=O)N[C@H](C(=O)N[C@H](C(=O)O)c4cc(O)cc(O)c4-c4cc3ccc4O)[C@H](O)c3ccc(c(Cl)c3)Oc3cc2cc(c3O[C@@H]2O[C@H](CO)[C@@H](O)[C@H](O)[C@H]2O[C@H]2C[C@](C)(N)[C@H](O)[C@H](C)O2)Oc2ccc(cc2Cl)[C@H]1O ; wanted: its Cmax
**A:** ~6000 ng/mL

Cited source: patent US20260212981A1
